Every entry's value here was drawn from patent US5145960A.

tested on: HSV-2 (herpes simplex virus type 2); assay: HSV-2 (strain 186) plaque reduction in WI-38 cell monolayers; format: cell-based; settings: Human alphaherpesvirus 2, 96 h; WI-38 cells; at least 50% plaque reduction; 4 days at 37° C.; read-out: ID50 HSV-2 (strain 186)
pIC50: −log10 of the molar value.
measured parameter: pIC50

Past entries and their recorded results:
>  <compound>
Nc1ncnc2c1ncn2[C@@H]1CO[C@H](CO)[C@H]1CO [Example 2]

>  <pIC50>
5.12 to 5.42

$$$$
>  <compound>
Nc1nc2c(ncn2[C@@H]2CO[C@H](CO)[C@H]2CO)c(=O)[nH]1 [Example 1]

>  <pIC50>
5.74

$$$$
>  <compound>
O=c1[nH]c(=O)n([C@@H]2CO[C@H](CO)[C@H]2CO)cc1I [Example 5]

>  <pIC50>
< 3.57

$$$$
>  <compound>
Cc1cn([C@@H]2CO[C@H](CO)[C@H]2CO)c(=O)[nH]c1=O [Example 3]

>  <pIC50>
3.41 to 3.71

$$$$

Please report the recorded pIC50 for Cc1cn([C@@H]2CO[C@H](CO)[C@H]2CO)c(=O)nc1N [Example 8] .
3.41

Which pIC50 reading was recorded for the compound Nc1ccn([C@@H]2CO[C@H](CO)[C@H]2CO)c(=O)n1 [Example 6] ?
4.39 to 4.68

Would you mind telling me what pIC50 value was observed for O=c1[nH]c(=O)n([C@@H]2CO[C@H](CO)[C@H]2CO)cc1/C=C/Br [Example 7] ?
< 3.54

Quick one: pIC50 of O=c1ccn([C@@H]2CO[C@H](CO)[C@H]2CO)c(=O)[nH]1 [Example 4] ?
< 3.38

Entry Nc1nc(=O)n([C@@H]2CO[C@H](CO)[C@H]2CO)cc1I [Example 9] : reported pIC50 = ?
< 3.57

* * *

test system: VV (vaccinia virus); experiment: microbe, parasite or virus in culture; assay type: cell-based; details: Orthopoxvirus vaccinia, WI-38, 96 h, read-out: ID50 VV (strain CL)
measured parameter: IC50

>  <item smiles>
Nc1ncnc2c1ncn2[C@@H]1CO[C@H](CO)[C@H]1CO

>  <IC50>
8 to 19 µM

$$$$

Reported IC50, compound "Nc1nc2c(ncn2[C@@H]2CO[C@H](CO)[C@H]2CO)c(=O)[nH]1" : ____
> 356 µM

Which IC50 value belongs to "Nc1ccn([C@@H]2CO[C@H](CO)[C@H]2CO)c(=O)n1" ?
41 to 415 µM
